Origin of values: patent US20250041298A1

protocol-text: Phase 1/1b clinical trial: plasma pharmacokinetics of PF-07220060
Type: in vivo, human
experimental-context: human, plasma, po, 300 mg, 300 mg BID oral monotherapy (Part 1A); C1D15 post multiple doses; geometric mean
Description: Oral PF-07220060 was administered with at least 8 oz (240 mL) of water on an empty stomach (except during the food effect evaluation on Day-7 in Part 1D). No food or liquids other than water was consumed for 2 hours before and 1 hour following each dose throughout the study for BID dosing. […] In the ongoing Phase 1/1b Study, as of Aug. […] Available plasma concentration-time data of PF-07220060 were analyzed using noncompartmental methods. […]
attribute-measured: Cmax (ng/mL)
Write the number in ng/mL without appending the unit.

What the record says about CC(C)n1c(C(C)(C)O)nc2c(F)cc(-c3nc(N[C@@H]4CCOC[C@H]4O)ncc3Cl)cc21 [PF-07220060] : Cmax is 1170

----------
protocol-text: Phase 1/1b clinical trial: plasma pharmacokinetics of PF-07220060
Format: in vivo, human
experimental-context: human, plasma, po, 100 mg, 100 mg BID oral monotherapy (Part 1A); C1D15 post multiple doses; geometric mean
attribute-measured: Cmax
Don't forget the unit after the value.

Note to self: Cmax recorded for "CC(C)n1c(C(C)(C)O)nc2c(F)cc(-c3nc(N[C@@H]4CCOC[C@H]4O)ncc3Cl)cc21" was 617 ng/mL

----------
protocol-text: Phase 1/1b clinical trial: plasma pharmacokinetics of PF-07220060
Assay type: in vivo, human
experimental-context: human, plasma, po, 200 mg, 200 mg BID oral monotherapy (Part 1A); C1D15; arithmetic mean
attribute-measured: half-life (h)
Field format: number, assumed h, no unit text.

Please fill in: half-life reported for "CC(C)n1c(C(C)(C)O)nc2c(F)cc(-c3nc(N[C@@H]4CCOC[C@H]4O)ncc3Cl)cc21" = 5.1

----------
protocol-text: Phase 1/1b clinical trial: plasma pharmacokinetics of PF-07220060
Format: in vivo, human
experimental-context: human, plasma, po, 300 mg BID oral + fulvestrant (Part 1C); C1D1 post first dose; median; read-out: Tmax
attribute-measured: Tmax (h)
Give a bare numeral; the unit h is implied.

The reported Tmax of the compound CC(C)n1c(C(C)(C)O)nc2c(F)cc(-c3nc(N[C@@H]4CCOC[C@H]4O)ncc3Cl)cc21 [PF-07220060] was 2

----------
protocol-text: Phase 1/1b clinical trial: plasma pharmacokinetics of PF-07220060
Format: in vivo, human
experimental-context: human, plasma, po, 300 mg BID oral + letrozole (Part 1B); C1D1 post first dose; geometric mean; read-out: AUC12
attribute-measured: AUC (ng·h/mL)
Reply numerically in ng·h/mL, unit not repeated.

Record summary for "CC(C)n1c(C(C)(C)O)nc2c(F)cc(-c3nc(N[C@@H]4CCOC[C@H]4O)ncc3Cl)cc21" : reported AUC = 6440

----------
protocol-text: Phase 1/1b clinical trial: plasma pharmacokinetics of PF-07220060
Assay type: in vivo, human
experimental-context: human, plasma, po, 400 mg BID, 400 mg BID oral + fulvestrant (Part 1C); C1D15; geometric mean; read-out: AUCtau
attribute-measured: AUC (ng·h/mL)
Respond numerically; units are ng·h/mL and should not be typed.

The reported AUC of the compound CC(C)n1c(C(C)(C)O)nc2c(F)cc(-c3nc(N[C@@H]4CCOC[C@H]4O)ncc3Cl)cc21 [PF-07220060] was 9560
